Test system: Plasmodium berghei
Experiment: Screen against P. berghei liver stage (PbLuc), transformed with Luciferase, at 10uM
Assay type: functional, HepG2
Conditions: tested at 10 uM
Screen size: about 69,000 compounds; about 8,600 (12%) showed an effect of 50% or more. Many of the other results were omitted from the sample, so strong results are more common in it than they were.
# reported INHIBITION; entries follow
Answer format: numeric, % implied, no suffix.

// worked examples, INHIBITION included
> print(dat)
                                   compound  readout.number
1      CN1CCN(CCCNCc2cc(O)c3cc(F)ccc3n2)CC1            65.6
2         Cc1nn(C)c2cnn(CC(=O)NCc3cccs3)c12            8.49
3  Cc1ccccc1N1CC2(CCCCN2CC2CC2)CC1=O (stereo unspecified)            5.63
4  O=C1CN(C(=O)CCn2c(C(F)(F)F)cc3cccnc32)CCN1            25.6
5  COCCN1CCCCC12CC(=O)N(c1cccc(C#N)c1)C2 (stereo unspecified)            61.1

Qu. Please give the documented INHIBITION of "O=C(CCNCc1cc(O)c2cc(F)ccc2n1)N1CCCC1"
Ans. 30.4

Qu. Please give the documented INHIBITION of "Cc1ccc2nc(CNCCCN3CCCC3)cc(O)c2c1"
Ans. 41.5

Qu. Please give the documented INHIBITION of CC(CNCc1ccc2c(c1)n(C)c(=O)n2C)Oc1ccccn1 (stereo unspecified)
Ans. -8.51

Qu. Please give the documented INHIBITION of "O=C1CN(c2ccc(C(=O)N3CCc4ccccc43)cn2)CCN1"
Ans. 49

Qu. Please give the documented INHIBITION of CC1c2ncc(CNC(=O)C3CC3)n2CCN1Cc1cccnc1 (stereo unspecified)
Ans. -5.31

Qu. Please give the documented INHIBITION of COCCCN1CCCCC12CC(=O)N(Cc1ccccn1)C2 (stereo unspecified)
Ans. 18.7

Qu. Please give the documented INHIBITION of "O=C1CCCN1CCCNCc1cc(O)c2cccc(Cl)c2n1"
Ans. -13.4

Qu. Please give the documented INHIBITION of CCN(C(=O)C(C)C)C(c1cccnc1)c1ccc2c(c1)CCO2 (stereo unspecified)
Ans. 3.87

Qu. Please give the documented INHIBITION of Cc1cnn(CC(C)NCc2ccc(S(C)(=O)=O)cc2)c1 (stereo unspecified)
Ans. 56.3

Qu. Please give the documented INHIBITION of O=C(c1cc[nH]n1)N1CCCC1c1cncc(CN2CCOCC2)n1 (stereo unspecified)
Ans. 11.8

Qu. Please give the documented INHIBITION of Cc1ncsc1CN1Cc2cnn(C)c2C(COCC2CC2)C1 (stereo unspecified)
Ans. -0.813
